System: subclones of RKO colon adenocarcinoma cells (RKOp27 or RKOp21) arrested by Ponasterone A
Assay: Alamar Blue cell viability assay, cell cycle specific mode of action: cells arrested by ectopic p27Kip1 induced by Ponasterone A versus proliferating cells
Assay type: cell-based
Conditions: Homo sapiens, RKO p27 induced (arrested) cells, 10 μM Ponasterone A, 72 hours, value = class bound given in Table A, read-out: −logIC50 RKO p27 induced (arrested) (converted)
As shown below, each of these compounds has a reported IC50 value.

In the examples that follow, each entry is paired with its recorded IC50.
CCNC(=O)OCC1CCc2c(sc(NC(=O)/C=C/c3ccccc3OCC)c2C#N)C1 (centres unmarked) :: ≥ 100 µM
CNC(=O)OCC1CCc2c(sc(NC(=O)CCc3cccc(OC)c3)c2C#N)C1 (centres unmarked) :: ≥ 100 µM
N#Cc1c(NC(=O)/C=C/c2cccnc2)sc2c1CCC(COC(=O)N1CCCC(O)C1)C2 (centres unmarked) :: ≥ 100 µM
CCOc1ccccc1CCC(=O)Nc1sc2c(c1C#N)CCC(OC(=O)NCCn1ccnc1)C2 (centres unmarked) :: ≥ 10 µM
N#Cc1c(NC(=O)/C=C/c2cccnc2)sc2c1CCC(COC(=O)NCCO)C2 (centres unmarked) :: ≥ 100 µM
Cc1ccncc1/C=C/C(=O)Nc1sc2c(c1C#N)CCC(COC(=O)N1CCC[C@H]1CO)C2 (some centres unmarked) :: ≥ 100 µM

*Q* Name the reported IC50 value associated with the compound CCn1nccc1CNC(=O)OCC1CCc2c(sc(NC(=O)CC(C)c3cccc(OC)c3)c2C#N)C1 (centres unmarked)
*A* ≥ 50.1 µM
